- target.of.assay: lysozyme (Gallus gallus, UniProt P00698)
- Sequence (P00698 19-147): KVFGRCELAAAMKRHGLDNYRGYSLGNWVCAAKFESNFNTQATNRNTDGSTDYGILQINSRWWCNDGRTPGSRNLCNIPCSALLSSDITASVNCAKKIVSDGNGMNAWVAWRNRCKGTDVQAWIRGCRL
- experimental.protocol: SPR adsorption of lysozyme to SAMs / grafted polymer films
- Format: binding
- condition.notes: mixed SAM —CONRR′/—CO2H
In this section we review reported dR/dton lysozyme (maximum initial rate of adsorption) values for a set of compounds.
The answer should read as a number with its unit following.

Name the reported dR/dton lysozyme (maximum initial rate of adsorption) value associated with the compound CNCC(=O)N(C)CC(=O)N(C)CC(=O)N(C)CC(=O)N(C)CC(=O)N(C)C [H(CH3)N(Sar)5N(CH3)2]
50 ± 20 RU/sec

Fill in: dR/dton lysozyme (maximum initial rate of adsorption) of `NC[C@H](O)[C@H](O)[C@H](O)[C@@H](O)CO` is ___
970 ± 400 RU/sec
